Reference source for all entries: patent US20120207760A1

Can you tell me log10(OD450) for the items I'm about to list?
- tested.target: Hemagglutinin of influenza A/Japan/305/57 (H2N2), on inactivated whole virions (Influenza A virus A/Japan/305/1957 …, UniProt P03451 16-562)
- test.description: ELISA, B cell culture supernatant on inactivated whole virions
The common logarithm of OD450 in OD450 is what is listed.

Ask | Any idea what its log10(OD450) is? The binder is TCN-542 (5079_A16) (antibody, V domains shown) VH: QVQLQESGPGLVKPSQTLSLTCTVSGGSISSGNYYWNWVRQHPGKGLEWIGYIYYRGSTFYNPSLKSRVTISIDTSKNQFSLRLSSVTAADTAVYYCAKDTRSSLDNYQYGMDVWGQGTTVTVSS VL: QTVVTQEPSLTVSPGGTVTLTCASSTGAVTSSYFPNWFQQKPGQAPRPLIYSTTIRHSWTPARFSGSLLGGKAALTLSGVQPEDEADYYCLLYSGGDPVAFGGGTKLTVL
Reply | -1.10

Ask | What value of measured log10(OD450) is listed for TCN-535 (5246_P19) (antibody, V domains shown) VH: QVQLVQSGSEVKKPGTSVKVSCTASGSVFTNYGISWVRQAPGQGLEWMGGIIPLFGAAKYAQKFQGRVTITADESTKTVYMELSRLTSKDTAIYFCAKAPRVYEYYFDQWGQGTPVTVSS VL: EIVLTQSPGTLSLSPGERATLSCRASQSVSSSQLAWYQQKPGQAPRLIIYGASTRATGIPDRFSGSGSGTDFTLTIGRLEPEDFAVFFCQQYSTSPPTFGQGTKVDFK ?
Reply | 0.16

Ask | Which log10(OD450) is reported for this binder? TCN-531 (5091_H13) (antibody, V domains shown) VH: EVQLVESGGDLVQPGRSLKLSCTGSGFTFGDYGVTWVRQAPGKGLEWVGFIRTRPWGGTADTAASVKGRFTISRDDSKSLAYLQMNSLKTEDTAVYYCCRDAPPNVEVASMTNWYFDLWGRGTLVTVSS VL: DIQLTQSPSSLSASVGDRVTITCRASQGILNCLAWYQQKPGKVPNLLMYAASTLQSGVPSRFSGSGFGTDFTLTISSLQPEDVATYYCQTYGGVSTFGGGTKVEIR
Reply | -0.17

Ask | Would you kindly share the measured log10(OD450) for TCN-555 (5246_L16) (antibody, V domains shown) VH: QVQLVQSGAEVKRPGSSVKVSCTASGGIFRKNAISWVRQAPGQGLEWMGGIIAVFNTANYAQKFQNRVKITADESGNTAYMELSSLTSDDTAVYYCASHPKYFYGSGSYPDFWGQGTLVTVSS VL: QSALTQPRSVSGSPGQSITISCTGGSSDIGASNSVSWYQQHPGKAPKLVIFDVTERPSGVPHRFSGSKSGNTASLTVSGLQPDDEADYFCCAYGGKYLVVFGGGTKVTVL ?
Reply | -0.22

Ask | Requested read-out: log10(OD450). Entry: TCN-552 (5249_I23) (antibody, V domains shown) VH: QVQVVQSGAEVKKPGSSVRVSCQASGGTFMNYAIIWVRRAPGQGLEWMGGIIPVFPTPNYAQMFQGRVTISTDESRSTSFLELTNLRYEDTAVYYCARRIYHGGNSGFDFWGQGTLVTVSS VL: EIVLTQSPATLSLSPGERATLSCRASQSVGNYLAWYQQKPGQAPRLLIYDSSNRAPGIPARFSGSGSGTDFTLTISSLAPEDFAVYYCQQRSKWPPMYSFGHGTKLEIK
Reply | -0.15
